Where do these numbers come from? They come from paper PMC4225009.

Tested on: human EAAT3 (Homo sapiens, UniProt P43005)
Construct: expressed in transfected cells
Sequence (P43005 whole entry): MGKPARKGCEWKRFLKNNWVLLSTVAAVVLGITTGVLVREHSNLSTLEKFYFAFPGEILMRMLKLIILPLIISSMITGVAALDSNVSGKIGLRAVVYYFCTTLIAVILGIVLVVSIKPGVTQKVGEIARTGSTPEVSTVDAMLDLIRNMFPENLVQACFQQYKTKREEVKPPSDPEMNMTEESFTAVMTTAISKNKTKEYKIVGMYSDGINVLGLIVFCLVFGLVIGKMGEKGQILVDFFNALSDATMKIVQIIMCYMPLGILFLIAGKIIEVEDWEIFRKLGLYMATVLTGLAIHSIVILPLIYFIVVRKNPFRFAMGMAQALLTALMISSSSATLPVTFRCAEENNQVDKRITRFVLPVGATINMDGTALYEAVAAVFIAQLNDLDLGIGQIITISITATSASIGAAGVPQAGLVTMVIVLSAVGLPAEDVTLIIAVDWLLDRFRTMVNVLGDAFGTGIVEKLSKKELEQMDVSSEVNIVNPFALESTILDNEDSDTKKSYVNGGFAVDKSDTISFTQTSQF
Method notes: [3H]-D-aspartate uptake assay at HEK293 cells stably expressing human EAAT3
Type: cell-based
Outcome measure: IC50

>  <Smiles input>
Nc1ccc(C(=O)N2CCN(c3cccc(C(F)(F)F)c3)CC2)cc1

>  <Outcome measure>
IC50

>  <Experimental result>
> 300 µM

$$$$
>  <Smiles input>
O=C(c1cccs1)N1CCN(c2cccc(C(F)(F)F)c2)CC1

>  <Outcome measure>
IC50

>  <Experimental result>
> 100 µM

$$$$
>  <Smiles input>
O=C(c1cccc2ccccc12)N1CCN(c2cccc(C(F)(F)F)c2)CC1

>  <Outcome measure>
IC50

>  <Experimental result>
> 300 µM

$$$$
>  <Smiles input>
O=C(Cc1ccccc1)N1CCN(c2cccc(C(F)(F)F)c2)CC1

>  <Outcome measure>
IC50

>  <Experimental result>
> 1000 µM

$$$$
>  <Smiles input>
O=C(N1CCN(c2cccc(C(F)(F)F)c2)CC1)C12CC3CC(CC(C3)C1)C2

>  <Outcome measure>
IC50

>  <Experimental result>
> 300 µM

$$$$
>  <Smiles input>
O=C(N1CCN(c2cccc(C(F)(F)F)c2)CC1)C1(c2ccccc2)CCCC1

>  <Outcome measure>
IC50

>  <Experimental result>
> 300 µM

$$$$
>  <Smiles input>
CC(C)(C)C(=O)N1CCN(c2cccc(C(F)(F)F)c2)CC1

>  <Outcome measure>
IC50

>  <Experimental result>
> 300 µM

$$$$
>  <Smiles input>
O=C(C1CCCC1)N1CCN(c2cccc(C(F)(F)F)c2)CC1

>  <Outcome measure>
IC50

>  <Experimental result>
> 300 µM

$$$$
>  <Smiles input>
Nc1cccc(C(=O)N2CCN(c3cccc(C(F)(F)F)c3)CC2)c1

>  <Outcome measure>
IC50

>  <Experimental result>
> 300 µM

$$$$
>  <Smiles input>
FC(F)(F)c1cccc(N2CCN(Cc3ccccc3)CC2)c1

>  <Outcome measure>
IC50

>  <Experimental result>
> 1000 µM

$$$$
>  <Smiles input>
NCC(=O)N1CCN(c2cccc(C(F)(F)F)c2)CC1

>  <Outcome measure>
IC50

>  <Experimental result>
> 300 µM

$$$$

###

Tested on: human EAAT1 (Homo sapiens)
Construct: expressed in transfected cells
Sequence (P43003 whole entry): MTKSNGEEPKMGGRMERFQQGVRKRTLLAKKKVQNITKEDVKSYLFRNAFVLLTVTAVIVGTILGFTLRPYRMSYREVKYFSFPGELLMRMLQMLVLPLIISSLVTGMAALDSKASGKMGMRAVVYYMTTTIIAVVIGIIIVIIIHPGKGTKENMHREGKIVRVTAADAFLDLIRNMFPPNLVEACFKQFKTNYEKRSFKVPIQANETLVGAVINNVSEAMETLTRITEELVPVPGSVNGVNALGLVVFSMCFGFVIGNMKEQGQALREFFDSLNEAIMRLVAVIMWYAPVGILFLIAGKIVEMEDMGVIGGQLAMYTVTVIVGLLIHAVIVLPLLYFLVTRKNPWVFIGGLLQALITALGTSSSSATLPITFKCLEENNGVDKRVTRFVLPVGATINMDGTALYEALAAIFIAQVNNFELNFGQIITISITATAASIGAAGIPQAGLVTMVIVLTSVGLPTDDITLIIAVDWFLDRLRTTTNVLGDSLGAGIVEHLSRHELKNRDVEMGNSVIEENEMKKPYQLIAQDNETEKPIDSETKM
Method notes: [3H]-D-aspartate uptake assay at HEK293 cells stably expressing human EAAT1
Assay type: cell-based
Measurement conditions: D-aspartate uptake, HEK293 cells stably expressing human EAAT1; analogs 3.1-3.12 (Table 2); read-out: EAAT1 IC50
pIC50: −log10 of the molar value.
Outcome measure: pIC50

>  <Molecule>
O=C(C1CC2CCC1C2)N1CCN(c2cccc(Cl)c2)CC1 (racemic) [(±)-endo-exo-3.7]

>  <Experimental result>
~3.52

$$$$
>  <Molecule>
O=C(C1CC2CCC1C2)N1CCN(c2cccc(O)c2)CC1 (racemic) [(±)-endo-exo-3.8]

>  <Experimental result>
< 3.52

$$$$
>  <Molecule>
COc1cccc(N2CCN(C(=O)C3CC4CCC3C4)CC2)c1 (racemic) [(±)-endo-exo-3.10]

>  <Experimental result>
< 3.52

$$$$
>  <Molecule>
N#Cc1cccc(N2CCN(C(=O)C3CC4CCC3C4)CC2)c1 (racemic) [(±)-endo-exo-3.9]

>  <Experimental result>
< 3.52

$$$$
